Data provenance: patent US20250195521A1

Reported values of IC50 for individual entries
TARGET OR SYSTEM: KRAS G13D (Homo sapiens (Human), UniProt P01116+P62937, G13D)
Sequence (P01116 other isoform, or with tags, fused parts or gaps G13D): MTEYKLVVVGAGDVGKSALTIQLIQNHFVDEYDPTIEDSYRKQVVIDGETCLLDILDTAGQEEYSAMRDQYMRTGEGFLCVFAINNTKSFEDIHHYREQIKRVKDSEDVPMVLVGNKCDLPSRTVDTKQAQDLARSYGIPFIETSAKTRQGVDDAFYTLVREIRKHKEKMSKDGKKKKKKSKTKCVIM
Sequence (P62937 whole entry): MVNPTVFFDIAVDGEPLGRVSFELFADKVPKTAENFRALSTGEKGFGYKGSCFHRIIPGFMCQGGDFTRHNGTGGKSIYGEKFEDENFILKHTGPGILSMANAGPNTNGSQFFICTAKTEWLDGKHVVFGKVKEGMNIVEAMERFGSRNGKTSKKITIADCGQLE
TEST DESCRIPTION: Ras-Raf disruption/FRET/MOA assay, KRAS G13D
Type: biochemical
ASSAY CONDITIONS: read-out: KRAS G13D FRET IC50

SMILES ENTRY	RESULT
CCn1c(-c2cnccc2COC)c2c3cc(ccc31)-c1cccc(c1)C[C@H](NC(=O)[C@H](C(C)C)N(C)C(=O)CCN=C=NCc1c(OC)cccc1OC)C(=O)N1CCC[C@H](N1)C(=O)OCC(C)(C)C2	> 10000 nM
CCn1c(-c2cnccc2COC)c2c3cc(ccc31)-c1cc(O)cc(c1)C[C@H](NC(=O)[C@@H](CCNC1=NCCO1)C(C)C)C(=O)N1CCC[C@H](N1)C(=O)OCC(C)(C)C2	1000 to 10000 nM
CCn1c(-c2cnccc2COC)c2c3cc(ccc31)-c1cc(O)cc(c1)C[C@H](NC(=O)[C@H](C(C)C)N(C)C(=O)N1CCCN(C(=O)[C@@H]3CN3)CC1)C(=O)N1CCC[C@H](N1)C(=O)OCC(C)(C)C2	100 to 1000 nM

Prompt: Fill in IC50 for record CCn1c(-c2cnccc2COC)c2c3cc(ccc31)-c1cc(O)cc(c1)C[C@H](NC(=O)[C@H](C(C)C)N(C)C(=O)CCNC1=NCCO1)C(=O)N1CCC[C@H](N1)C(=O)OCC(C)(C)C2
Response: 10 to 100 nM

Prompt: Fill in IC50 for record CCn1c(-c2cnccc2COC)c2c3cc(ccc31)-c1cc(O)cc(c1)C[C@H](NC(=O)[C@@H](CCNC(=O)NCCCl)C(C)C)C(=O)N1CCC[C@H](N1)C(=O)OCC(C)(C)C2
Response: 1000 to 10000 nM
